Test system: EKVX NSCLC
assay_info: NCI tumour cell line growth inhibition, 48 h
experimental_endpoint: TGI

Input: Give its TGI value. Item: CN(C)C(=S)/N=c1\ss/c(=N\S(=O)(=O)c2ccccc2)n1N(C)C
Output: > 100 µM

Input: Query (compound): Cc1c(C)c(S(=O)(=O)N(CCCCCON)OCCCN)c(C)c2c1OC(C)(C)CC2 ; field requested: TGI
Output: 24.7 µM

Input: Consider the compound shown here: CC[C@@H]1/C=C/C=C/C[C@H](C)[C@@H](O)[C@](C)(O)C(=O)[C@H](C)[C@@H](O)[C@H](C)C(=O)[C@H](C)[C@@H](O)[C@H](C)/C=C/C(=O)O[C@H]2[C@@H](C)[C@@H](CC1)O[C@@]1(CC[C@@H](C)[C@@H](CC(C)O)O1)[C@@H]2C (stereo partly specified) What is its recorded TGI?
Output: 10.8 µM

Input: Would you mind telling me what TGI value was observed for NCCSCCc1ccccc1 ?
Output: > 100 µM

Input: Look at this compound and give its reported TGI. Cc1ccc(S(=O)(=O)c2c(N)n(CCN(C)C)c3nc4ccccc4nc23)cc1
Output: > 100 µM

Input: Please give the measured TGI for this compound: CNC(=O)OCC1C2=C(C(=O)C(C)=C(N)C2=O)N2CC3C(N3C)C12OC (stereo unspecified)
Output: > 100 µM

Input: Can you share its TGI? I mean this compound: CCC1CN2CCC3(c4ccccc4)CC(C(=O)OC)=CC1C23 (stereo unspecified)
Output: 34.1 µM

Input: If you can, please state the reported TGI value of CCc1cc2c(oc3cc(C)ccc32)c(=O)n1C .
Output: > 10 µM

Input: Returns the measured TGI for the input compound. Input: CCC(=O)C(C(C)/C=C/CCSc1ccccc1)C(O)CCCCCC(=O)OC (stereo unspecified)
Output: > 100 µM

Input: State the recorded TGI for this entry: S=C1N=C(Cl)/C(=C\c2ccccc2)N1
Output: > 100 µM

Input: Fill in: TGI of Nc1n[nH]c(CCc2nc(N)n[nH]2)n1 is ___
Output: > 100 µM

###

Tested on: OVCAR-8 ovarian
assay_info: NCI tumour cell line growth inhibition, 48 h
The threshold is inclusive: TGI of exactly 20 µM counts as 1; values below receive -1.

Input: API: above_or_equal(metric=TGI, cutoff=20 µM) for item c1ccc(CC2(c3cc4ccccc4[nH]3)OCCO2)nc1
Output: 1

Input: API: above_or_equal(metric=TGI, cutoff=20 µM) for item O=C1NCCS(=O)(=O)/C1=C\C=C\c1cccc(C(F)(F)F)c1
Output: -1

Input: State whether the measured TGI reaches 20 µM, counting equality as reaching it, for NC(=O)c1cccc([C@@H]2O[C@H](CO)[C@@H](O)[C@H]2O)c1
Output: -1

Input: Say whether CC(C)C(NCc1c(O)ccc2c(-c3ccccc3)cc(=O)oc12)C(=O)O (configuration not stated) shows TGI of 20 µM or more.
Output: 1

Input: Say whether Cc1ccc2c(=O)cc(-c3sc4ccccc4c3C)[nH]c2n1 shows TGI of 20 µM or more.
Output: 1

Input: Reported TGI reaches at least 20 µM for CCN(CC)CCSCCCNc1c2ccc(Cl)cc2nc2ccc(OC)cc12 ?
Output: -1

Input: Say whether Cc1cc2c(C)n(Cc3ccc(Cl)cc3Cl)nc2c(C(=O)O)c1C shows TGI of 20 µM or more.
Output: 1

Input: Threshold query (TGI >= 20 µM) on Nc1nc(N)c2nc(CNc3ccc(C(=O)NC(CCCCNC(=O)c4ccccc4C(=O)O)C(=O)O)cc3)cnc2n1 (configuration not stated)
Output: 1

Input: Has C=CCN1CN(c2ccccc2)C2(CCN(CCCC3(c4ccc(F)cc4)OCCO3)CC2)C1=O a recorded TGI greater than or equal to 20 µM?
Output: 1

Input: Could you verify whether the entry Cc1cc2c(cc1N)C(C)C1(CCC(=O)N2Cc2ccccc2)OCCO1 (configuration not stated) shows TGI of no less than 20 µM?
Output: 1

Input: Is TGI for Cc1ccc(S(=O)(=O)c2c(N)n(CCN(C)C)c3nc4ccccc4nc23)cc1 at or above 20 µM?
Output: 1

Input: API: above_or_equal(metric=TGI, cutoff=20 µM) for item CN(C)CCN1C(=O)c2cccc3cccc(c23)C1=O
Output: 1

Input: Could you verify whether the entry CC(C)(C)OC(=O)N(CCCCNCc1ccc2ccccc2c1)CCCNCc1ccc2ccccc2c1 shows TGI of no less than 20 µM?
Output: -1

Input: Check this compound for TGI at or above 20 µM: CC1=NN=C(N)NC1=CC(Sc1ccc(Cl)cc1)c1c(O)ccc2ccccc12 (configuration not stated)
Output: 1

Input: Item Cc1ccc(S(=O)(=O)NCCCSCCSCCCN)cc1 with TGI of 20 µM or above?
Output: 1

Input: Identify whether the reported TGI of the following compound is 20 µM or greater: Oc1ccc(Cl)cc1CNc1nc2ccccc2[nH]1
Output: 1

Input: Form field: TGI at least 20 µM? Entry: O=C1C=CC(CC(=O)c2ccc3ccccc3c2)O1 (configuration not stated)
Output: 1

Input: Record CCOP(=O)(OCC)/C(C#N)=C/c1c[nH]c2ccccc12 ; criterion: TGI no lower than 20 µM. Met?
Output: 1

Input: Check the entry CN(/N=N/c1nc(OCc2ccccc2)c2[nH]cnc2n1)C(=O)Oc1ccc([N+](=O)[O-])cc1 : does TGI equal or exceed 20 µM?
Output: 1
